// provenance: paper doi:10.1101/2020.05.04.075580

EXPERIMENTAL SYSTEM: importin alpha2_21-50 peptide (mouse, UniProt P52293)
PROTOCOL SUMMARY: NMR
MEASUREMENT KIND: pKd
Kindly note that pKd refers to -log10 of the concentration in mol/L and answer with the value alone.

Inquiry: Give its pKd value. Item: SOX-POU 15 bp (dsDNA) DNA 1: GCAGATGCATAACCG DNA 2: CGGTTATGCATCTGC
Reply text: 6.52
